System: SEM cells
assay: cell viability relative to DMSO control; higher = less cytotoxic
conditions: RPMI 5 mM glucose + 10% FBS; 48 h; 5.12 µM
recorded-metric: cell viability (%)
The reply should contain only the number, in %.

[[record]]
compound = "CC(C)OC(=O)[C@H](C)N[P@](=O)(OC[C@H]1O[C@@H](N2\\C=C/C(=O)NC2=O)[C@](C)(F)[C@@H]1O)OC3=CC=CC=C3"
measured_target = "SEM cells"
recorded_metric = "cell viability"
numeric_result = 88.1

[[record]]
compound = "COc1ccc(C(=O)c2c(C)n(CCN3CCOCC3)c3cc(I)ccc23)cc1"
measured_target = "SEM cells"
recorded_metric = "cell viability"
numeric_result = 96.4

[[record]]
compound = "CCCCOCCOc1nc(-c2ccc(C(=O)O)c(F)c2)sc1C"
measured_target = "SEM cells"
recorded_metric = "cell viability"
numeric_result = 102

[[record]]
compound = "COc1cc[nH]c2ncc(C(=O)C(=O)N3CCN(C(=O)c4ccccc4)C[C@H]3C)c1-2"
measured_target = "SEM cells"
recorded_metric = "cell viability"
numeric_result = 113


In plain terms, C=CC(=O)Nc1cc2c(Nc3ccc(F)c(Cl)c3)ncnc2cc1OCCCN1CCOCC1 has a documented cell viability of 41.7

In plain terms, C=C[C@H]1CN2CCC1C[C@@H]2C(O)c1ccnc2ccc(OC)cc12 (some centres not stated) has a documented cell viability of 94.6

###

Consider the following molecules and their measured cell viability readings.
Test system: P12-Ichikawa
assay: cell viability relative to DMSO control; higher = less cytotoxic
conditions: RPMI 5 mM glucose + 10% dialyzed FBS; 48 h; 0.00702 µM

In plain terms, Oc1nc(-c2ccc(C(F)(F)F)cc2)nc2c1CSCC2 has a documented cell viability of 95.5%

###

Consider the following compounds and their measured cell viability readings.
Test system: NOMO1
assay: cell viability relative to DMSO control; higher = less cytotoxic
conditions: RPMI 5 mM glucose + 10% FBS; 48 h; 0.000781 µM
The reply should contain only the number, in %.

[[record]]
structure_smiles = "CCCCCCCCCCCCCC(=O)N[C@H](CO)[C@H](O)c1ccc([N+](=O)[O-])cc1"
value_unit = "%"
numeric_result = 91.2

[[record]]
structure_smiles = "CNC(=O)c1ccc(Nc2cc(Nc3ccccc3[S+](=O)([O-])C(C)C)c3cc[nH]c3n2)nc1"
value_unit = "%"
numeric_result = 98


With those in mind, consider the next compound.
In plain terms, CCCCOc1c(C(=O)c2c(F)cc(C)cc2F)cnc2[nH]ncc12 has a documented cell viability of 89.4

###

Test system: SEM cells
assay: cell viability relative to DMSO control; higher = less cytotoxic
conditions: HPLM + 10% dialyzed FBS; 48 h; 1.71 µM
Consider the following compounds and their measured cell viability readings.
The reply should contain only the number, in %.

[[record]]
compound = "Cc1cnc(Nc2ccc(F)cc2Cl)nc1-c1c[nH]c(C(=O)N[C@H](CO)c2cccc(Cl)c2)c1"
measured_target = "SEM cells"
numeric_result = 125


In plain terms, CCc1ccc(/C=C2/SC(=S)NC2=O)cc1 has a documented cell viability of 64.8

In plain terms, CC(C(=O)O)c1ccc2c(c1)CC(=O)c1ccccc1S2 (centres undefined) has a documented cell viability of 114

###

Consider the following compounds and their measured cell viability readings.
Test system: P12-Ichikawa
assay: cell viability relative to DMSO control; higher = less cytotoxic
conditions: RPMI 5 mM glucose + 10% dialyzed FBS; 48 h; 0.0632 µM
The reply should contain only the number, in %.

Worked set:
[[record]]
compound = "OCC(O)C(O)C(O)CO (stereo not given)"
numeric_result = 97.2

[[record]]
compound = "CC(C)(O)CC(=O)NCCn1ccc2ncnc(Nc3ccc(Oc4cccc(C(F)(F)F)c4)c(Cl)c3)c21"
numeric_result = 115

[[record]]
compound = "CCCCN(CCCC)CC(O)c1cc(Cl)cc2c1-c1ccc(Cl)cc1/C2=C/c1ccc(Cl)cc1 (stereo not given)"
numeric_result = 96.9

[[record]]
compound = "CCCCOCCOc1nc(-c2ccc(C(=O)O)c(F)c2)sc1C"
numeric_result = 116

[[record]]
compound = "COC(=O)C\\1=C(C)\\N\\C(=C(/C1C2=CC=CC3=NON=C23)C(=O)OC(C)C)C (stereo not given)"
numeric_result = 101


In plain terms, Oc1nc(-c2ccc(C(F)(F)F)cc2)nc2c1CSCC2 has a documented cell viability of 90.7

In plain terms, CC12CC3CC(C)(C1)CC(N)(C3)C2 has a documented cell viability of 129
